# test description: Retention time at 40 mM
# Type: ADME
# measurement conditions: 40000 µM
Kindly return met if reported Retention time is no lower than 3 min; return not met if it is lower.

given smiles | assigned category
COc1cc2[nH]c(C)nc2cc1-c1nc(C)c(-c2cccnc2)[nH]1 | not met
CSc1ccccc1-c1nc(C)c(-c2cccnc2)[nH]1 | met
Cc1nc2cc(-c3nc(C)c(-c4cccnc4)[nH]3)c(C)cc2[nH]1 | not met
COc1cc(NC(C)=O)c([N+](=O)[O-])cc1-c1nc(C)c(-c2cccnc2)[nH]1 | met

Is the recorded value of Retention time equal to or greater than 3 min for this compound? CCOC(=O)COc1ccccc1-c1nc(C)c(-c2cccnc2)[nH]1
met

Is the recorded value of Retention time equal to or greater than 3 min for this compound? Cc1ccccc1-c1nc(C)c(-c2cccnc2)[nH]1
met

Is the recorded value of Retention time equal to or greater than 3 min for this compound? COc1c(-c2nc(C)c(-c3cccnc3)[nH]2)ccc2[nH]c(C)nc12
not met

###

Can you tell me Retention time for the items I'm about to list?
# test description: Retention time at 40 mM
# Format: ADME
# measurement conditions: 40000 µM
Answers are plain numbers, in min.

given smiles | numeric result
Cc1nc2cc(Cl)c(-c3nc(C)c(-c4cccnc4)[nH]3)cc2[nH]1 | 3
COc1c(-c2nc(C)c(-c3cccnc3)[nH]2)cc2nc(O)[nH]c2c1Cl | 1.289
Cc1[nH]c(-c2ccccc2F)nc1-c1cccnc1 | 6.57

Please examine the following record next.
Retention time recorded for this compound, COc1c(-c2nc(C)c(-c3cccnc3)[nH]2)cc(Cl)c2[nH]c(C)nc12 , is 6.52
